- System: EPHA4
- Condition: concentration: 1 μM, replicates: in singlicate; n = 1;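 also: KINOMEscan kinase panel screen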
Measured attribute: %Inh (%)
State just the number; it will be interpreted in %.

Reference set (2 entries):
1. COc1ccc(Nc2nccc(N3CCC(NC(=O)c4cccc(NC(C)=O)c4)C3)n2)cc1 (stereo not shown) = 0
2. COc1cc2ncnc(Nc3ccc(OCc4ccccc4Br)c(Cl)c3)c2cc1OC.Cl = 3

Fill in reported %Inh for this entry: OCCOCCn1ccc2ncnc(Nc3ccc(Oc4cccc(Cl)c4)c(Cl)c3)c21
0

Hello, please tell me recorded %Inh for this one: CCCc1ccc(S(=O)(=O)NC2CCN(c3ccnc(Nc4ccc(OC)cc4)n3)C2)cc1 (stereo not shown)
0

* * *

- System: CDK9
- Condition: concentration: 1 μM, replicates: in singlicate; n = 1
Measured attribute: %Inh
Give the figure together with its unit, number first.

Take a look at these entries with their results.
1. c1ccc(-c2ccc3c(-c4ccnc(Nc5ccc6c(c5)OCCO6)n4)cnn3n2)cc1 = 0%
2. N#Cc1ccc(Oc2ccc(Nc3ncnc4cc[nH]c34)cc2Cl)cc1 = 17%

Using known records, supply %Inh for CNc1nccc(-c2c(-c3ccc(F)cc3)ncn2CCCN2CCOCC2)n1
0%

Return reported %Inh. Input molecule: Fc1cccc(COc2ccc(Nc3ncnc4cc[nH]c34)cc2Cl)c1
11%

Give reported %Inh value for Nc1nc(-c2ccc3c(N)n[nH]c3c2)cc(N2CCC[C@@H](C(=O)Nc3ccccc3)C2)n1.O=C(O)C(F)(F)F.O=C(O)C(F)(F)F
0%

Could you please provide reported %Inh for O=C(Nc1ccccc1F)NC1CCN(c2ccnc(Nc3ccc(F)cc3)n2)C1 (centres unmarked) ? Thanks!
0%

Give a short answer stating reported %Inh for CS(=O)(=O)CCNCc1nc(-c2ccc3ncnc(Nc4ccc(OCc5cccc(F)c5)c(Cl)c4)c3c2)cs1.Cl .
10%

For the molecule O=C(CCO)NCCn1ccc2ncnc(Nc3ccc(Oc4cccc(C(F)(F)F)c4)c(Cl)c3)c21 , give its measured %Inh value.
0%

* * *

- Test system: RSK2(Kin.Dom.1-N-terminal)
- Construct: gene RPS6KA3
- Condition: concentration: 1 μM, replicates: in singlicate; n = 1
# if value of %Inh reaches 9%, tag Yes; if it stays below, tag No

1) N#Cc1ccc(Oc2ccc(Nc3ncnc4cc[nH]c34)cc2Cl)cc1 = Yes
2) CCCc1ccc(S(=O)(=O)NC2CCN(c3ccnc(Nc4ccc(OC)cc4)n3)C2)cc1 (stereo not drawn) = No
3) Nc1nc(-c2cccnc2)c(-c2ccnc3ccccc23)s1 = No
4) CSc1nn2c(=O)cc(N3CCOCC3)nc2n1Cc1cccc(Cl)c1Cl = No
5) Fc1cccc(COc2ccc(Nc3ncnc4cc[nH]c34)cc2Cl)c1 = Yes
6) Clc1cccc(-c2nc(Nc3ccncc3)c3ccccc3n2)c1 = Yes

Would you say Cn1ccc2ncnc(Nc3ccc(Oc4cccc(Cl)c4)c(Cl)c3)c21 shows %Inh at minimum 9%?
Yes

* * *

- Tested on: WEE1
- Condition: concentration: 1 μM, replicates: in singlicate; n = 1
Measured attribute: %Inh (%)
Field: numeric (%). Do not append units.

1. Fc1cccc(COc2ccc(Nc3ncnc4sc(-c5ccc[nH]5)cc34)cc2Cl)c1 = 6

Determine from records and report %Inh for COc1cc2ncnc(Nc3ccc(OCc4ccccc4Br)c(Cl)c3)c2cc1OC.Cl
0

Please report %Inh for the following compound: OCCOCCn1ccc2ncnc(Nc3ccc(Oc4cccc(Cl)c4)c(Cl)c3)c21
0

Quick one: give measured %Inh for Fc1ccc(-c2ncn(CCCNCc3ccccc3)c2-c2ccncc2)cc1
0

Answer with the recorded %Inh for the compound listed here: COc1ccc(Nc2nccc(N3CCC(NC(=O)Nc4ccc5c(c4)OCO5)C3)n2)cc1 (centres unmarked)
12
